# TEST_SUMMARY: Acute toxicity, Karber and Behrens method, female IFFA-CREDO mice
# EXPERIMENTAL_CONDITIONS: mouse, in vivo, iv
# maps each entry to its LD50
MEASURE_NAME: LD50 (mg/kg)

>>> readout_value("CC1CC=C(c2ccc(O)c(S(=O)(=O)O)c2)C(C(C)C)C1 (centres unmarked) [LJ 2148, sodium m.menthene-phenol-2-sulfonate]")
305
>>> readout_value("Cc1c(C2=CCC(C)CC2C(C)C)cc(C(C)C)c(O)c1S(=O)(=O)O (centres unmarked) [LJ 2128, m.menthene-thymol-2-sulfonate]")
125

* * *

Property: LD50; scope: individual molecules
# TEST_SUMMARY: Acute toxicity, Karber and Behrens method, female IFFA-CREDO mice
# EXPERIMENTAL_CONDITIONS: mouse, in vivo, po
MEASURE_NAME: LD50 (mg/kg)

>>> readout_value("CC1CC=C(c2ccc(O)c(S(=O)(=O)O)c2)C(C(C)C)C1 (centres unmarked) [LJ 2148, sodium m.menthene-phenol-2-sulfonate]")
2900
>>> readout_value("Cc1c(C2=CCC(C)CC2C(C)C)cc(C(C)C)c(O)c1S(=O)(=O)O (centres unmarked) [LJ 2128, m.menthene-thymol-2-sulfonate]")
1920
